- TARGET SYSTEM: human beta-3-adrenergic receptor (Homo sapiens, UniProt P13945)
- Construct: Chinese hamster ovary (CHO) cells that stably express full-length human beta-3-adrenergic receptor; expressed in transfected cells
- Sequence (P13945 whole entry): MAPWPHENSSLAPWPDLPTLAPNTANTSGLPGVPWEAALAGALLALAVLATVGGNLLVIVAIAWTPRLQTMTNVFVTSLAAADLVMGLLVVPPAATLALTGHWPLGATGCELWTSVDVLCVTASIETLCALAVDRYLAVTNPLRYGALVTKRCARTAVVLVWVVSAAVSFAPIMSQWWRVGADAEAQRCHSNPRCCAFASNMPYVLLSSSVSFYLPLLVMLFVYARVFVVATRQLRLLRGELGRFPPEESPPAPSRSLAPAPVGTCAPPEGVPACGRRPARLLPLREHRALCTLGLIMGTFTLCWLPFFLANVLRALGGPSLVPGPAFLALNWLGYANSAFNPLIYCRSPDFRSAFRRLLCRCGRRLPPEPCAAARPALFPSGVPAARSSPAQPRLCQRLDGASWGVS
- ASSAY NOTES: cAMP production (SPA) in CHO cells stably expressing human beta-3-adrenergic receptor, agonist activity
- Type: cell-based
- EXPERIMENTAL SETUP: cAMP production in CHO cells expressing human beta-3-adrenergic receptor; compounds binned (≦1 μM or >1 μM); read-out: Beta-3 Agonistic Activity, EC50 values
pEC50: −log10 of the molar value.
Entries and their pEC50 values follow.

Below: 6 molecules and their reported pEC50.
Kindly note the recorded pEC50 for `O=C(O)c1ccc(-c2ccc3c(c2)CC[C@H](CNC[C@H](O)COc2cccc4[nH]c5ccccc5c24)O3)cc1` , which is ≥ 6.00

Kindly note the recorded pEC50 for `O=C(O)c1ccc(-c2ccc3c(c2)CC[C@H](CNC[C@H](O)COc2cccc(Cl)c2)O3)cc1` , which is ≥ 6.00

Kindly note the recorded pEC50 for `O=C(O)c1nc(-c2ccc3c(c2)CC[C@H](CNC[C@H](O)COc2ccccc2)O3)sc1-c1ccccc1` , which is ≥ 6.00

Kindly note the recorded pEC50 for O=C(O)c1ccc(-c2ccc3c(c2)CC[C@H](CNCC(O)COc2ccccc2Cl)O3)cc1 (stereo partly shown) , which is ≥ 6.00

Kindly note the recorded pEC50 for `CCCCOc1cc(-c2ccc3c(c2)CC[C@H](CNC[C@H](O)COc2ccccc2)O3)ccc1C(=O)O` , which is ≥ 6.00

Kindly note the recorded pEC50 for `O=C(O)c1ccc(-c2ccc3c(c2)CC[C@H](CNC[C@H](O)CSc2ccc(C(F)(F)F)cc2)O3)cc1` , which is < 6.00

Now, please, on to the next molecule.
Kindly note the recorded pEC50 for `O=C(O)c1ccc(-c2ccc3c(c2)CC[C@H](CNC[C@H](O)COc2ccccc2)O3)cc1NC1CCCCC1` , which is ≥ 6.00

* * *

- TARGET SYSTEM: human beta-3-adrenergic receptor (Homo sapiens, UniProt P13945)
- Construct: Chinese hamster ovary (CHO) cells that stably express full-length human beta-3-adrenergic receptor; expressed in transfected cells
- ASSAY NOTES: cAMP production (SPA) in CHO cells stably expressing human beta-3-adrenergic receptor, agonist activity
- Type: cell-based
- EXPERIMENTAL SETUP: cAMP production in CHO cells expressing human beta-3-adrenergic receptor; compounds binned (≦1 μM or >1 μM); read-out: Beta-3 Agonistic Activity, EC50 values
- Method: The cell line is grown in 90% F12 nutrient mixture (HAM), 10% fetal bovine serum, 100 units/ml penicillin G sodium, […] streptomycin sulfate, and 2 mM L-glutamine at 37° C. in 95% air and 5% CO2. The transfected cell line is maintained with G418 (800ug/ml). To test agonist activity, cells are exposed to test compound and then assayed for cAMP production. […] Test compounds are assayed from 10 μM to 3 nM with 3-fold serial dilutions. […]
QUANTITY KIND: EC50

Below: 3 compounds and their reported EC50.
Kindly note the recorded EC50 for `O=C(O)c1ccc(-c2ccc3c(c2)CC[C@H](CNC[C@H](O)CSc2ccc(Cl)cc2)O3)cc1` , which is > 1000 nM

Kindly note the recorded EC50 for `O=C(O)c1ccc(-c2ccc3c(c2)CC[C@H](CNC[C@H](O)COc2ccccc2)O3)cc1` , which is ≤ 1000 nM

Kindly note the recorded EC50 for `O=C(O)c1nc(-c2ccc3c(c2)CC[C@H](CNC[C@H](O)COc2ccccc2)O3)oc1-c1ccccc1` , which is ≤ 1000 nM

Now, please, on to the next compound.
Kindly note the recorded EC50 for `O=C(O)c1ccc(-c2ccc3c(c2)CC[C@H](CNC[C@H](O)CSc2ccc(F)cc2)O3)cc1` , which is > 1000 nM
